ASSAY_PROCEDURE: Half life in rat at 0.5 mg/kg, iv or 1 mg/kg, po
Type: ADME, organism-based
APPLIED_CONDITIONS: in vivo
REPORTED_ENDPOINT: half-life (h)
Answers are plain numbers, in h.

Check out these entries, answers already filled in.
Q: Let me know recorded half-life for COc1ccc(C(=O)C2=C(O)C(=O)N(c3ccc(-c4nnc(C)o4)cc3)C2C2CCCCC2)cc1 (stereo unspecified) , thanks.
Result: 1.7

Q: Let me know recorded half-life for COc1ccc(C(=O)C2=C(O)C(=O)N(c3ccc(-c4nc(C)no4)cc3)C2C2CCCCC2)cc1 (stereo unspecified) , thanks.
Result: 1

Q: Let me know recorded half-life for COc1ccc(C(=O)C2=C(O)C(=O)N(c3ccc(-c4ccon4)cc3)C2C2CCCCC2)cc1 (stereo unspecified) , thanks.
Result: 1.3

Q: Let me know recorded half-life for COc1ccc(C(=O)C2=C(O)C(=O)N(c3ccc(-c4noc(C)n4)cc3)C2C2CCCCC2)cc1 (stereo unspecified) , thanks.
Result: 0.8

Hi! Can you tell me half-life for each of these compounds?
1. CCOC(=O)c1ccc(N2C(=O)C(O)=C(C(=O)c3ccc(OC)cc3)C2c2ccc(F)cc2)cc1 (stereo unspecified)
2. COc1ccc(C(=O)C2=C(O)C(=O)N(c3ccc(-c4cc(C)no4)cc3)C2C2CCCCC2)cc1 (stereo unspecified)

Result:
1: 0.1; 2: 1.1

Reference for the values: ChEMBL document CHEMBL4118217
